B1: E3 ubiquitin-protein ligase NEDD4-like, residues 539 to 589; numbered along this chain, Q96PU5 (parent)
chain: KTSLNPNDLGPLPPGWEERIHLDGRTFYIDHNSKITQWEDPRLQNPAITGP

variants of: B1; assay: abundance fitness (aPCA) (normalised: wild type 0, dead -1); higher = more abundant; growth selection in yeast, the domain comes from the species named; settings: Homo sapiens
Can you tell me abundance fitness for the items I'm about to list?
# answer = number (no unit)

Ask | Please report abundance fitness for the following variant: I20R
Reply | -0.006

Ask | For the variant D23C , give its reported abundance fitness.
Reply | -0.135

Ask | Return abundance fitness for the following variant: N32D
Reply | -0.118

Ask | Kindly indicate its recorded abundance fitness. Item: P41M
Reply | -0.367

Ask | Tell us which abundance fitness value is on record for K34W
Reply | -0.547

Ask | Item E39L : provide abundance fitness
Reply | -0.313

Ask | Name the recorded abundance fitness of the item I29W in your answer.
Reply | -0.332

Ask | Answer with the recorded abundance fitness of D40A only.
Reply | -0.528

Ask | // fetch abundance fitness given entry N5F
Reply | -0.135

Ask | Supply recorded abundance fitness for N7H here.
Reply | -0.146

Ask | Please indicate abundance fitness recorded for I20V
Reply | 0.093

Ask | Give a short answer stating reported abundance fitness for T36W .
Reply | -0.491

Ask | Look up abundance fitness of W16R and report it.
Reply | -0.408

Ask | Specify measured abundance fitness for R19C .
Reply | -0.138

Ask | For the variant H21E , report abundance fitness.
Reply | -0.052

Ask | Name the recorded abundance fitness of the variant listed here: G10A
Reply | -0.076

Ask | Identify measured abundance fitness corresponding to W38V
Reply | -0.146

Ask | Provide only the value of recorded abundance fitness for P13A
Reply | -0.495
